EC50 values by entry
biological target: T1, cyno activated protein C (cyno (monkey)); experiment: ELISA, coated antigen
T1 construct: also called cyno aPC; cyno APC
Use nM as the unit, but write only the number.

Hu1573-13 (antibody, V domains shown, Humanized IgG, human gamma 1 / kappa constant regions by vectors pCP-hCg1 and pCP-hck; also called H1573VH.1E + H1573Vk.2A) VH: EVQLVESGGGLVQPGGSLRLSCAASGFTFSNYYLNWVRQAPGKGLEWVADIRLKSNNYEKHYAESVKGRFTISRDDSKNSVYLQMNSLKTEDTAVYYCIREGDYFDYWGQGTTVTVSS VL: DIVLTQTPLSLSVTPGQPASISCRASESVDSFGATFMHWYLQKPGQPPQLLIYLASNLESGVPDRFSGSGSGTDFTLKISRVEAEDVGVYYCQQNNEDPYTFGQGTKLEIKR = 0.804

Per the record, Hu1573-2 (antibody, V domains shown, Humanized IgG, human gamma 1 / kappa constant regions by vectors pCP-hCg1 and pCP-hck; also called H1573VH.1A + H1573Vk.2C) VH: EVQLVESGGGLVQPGGSLRLSCAASGFTFSNYYLNWVRQAPGKGLEWVGDIRLKSNNYEKHYAESVKGRFTISRDDSKNSLYLQMNSLKTEDTAVYYCIREGDYFDYWGQGTTVTVSS VL: DIVLTQTPLSLSVTPGQPASISCRASESVDSFGATFMHWYLQKPGQPPQLLIYLASNLESGVPDRFSGSGSRTDFTLKISRVEAEDVGVYYCQQNNEDPYTFGQGTKLEIKR has EC50 of 0.774

Per the record, 1573 Chimeric (antibody, V domains shown, IgG; also called chimera 1573; 1573VH (chimeric) + 1573Vk (chimeric)) VH: EVKLEESGGGLVQPGGSMKLSCVASGFTFSNYYLNWVRQSPEKGLEWVADIRLKSNNYEKHYAESVKGRFTISRDDSKSSVYLQMNNLRAEDTGIYYCIREGDYFDYWGQGTTLTVSS VL: NIVLTQSPASLAVSLGQRATISCRASESVDSFGATFMHWYQQKPGQPPKLLIYLASNLESGVPARFSGSGSRTDFTLTIDPVEADDAATYYCQQNNEDPYTFGGGTKLEIKR has EC50 of 0.83

Per the record, Hu1573-7 (antibody, V domains shown, Humanized IgG, human gamma 1 / kappa constant regions by vectors pCP-hCg1 and pCP-hck; also called H1573VH.1C + H1573Vk.2A) VH: EVQLVESGGGLVQPGGSLRLSCAASGFTFSNYYLNWVRQAPGKGLEWVADIRLKSNNYEKHYAESVKGRFTISRDDSKNSLYLQMNSLKTEDTAVYYCIREGDYFDYWGQGTTVTVSS VL: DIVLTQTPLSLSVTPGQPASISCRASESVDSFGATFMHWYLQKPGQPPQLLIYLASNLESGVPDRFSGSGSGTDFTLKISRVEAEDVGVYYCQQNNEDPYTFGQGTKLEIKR has EC50 of 0.853

Per the record, Hu1573-12 (antibody, V domains shown, Humanized IgG, human gamma 1 / kappa constant regions by vectors pCP-hCg1 and pCP-hck; also called H1573VH.1E + H1573Vk.2) VH: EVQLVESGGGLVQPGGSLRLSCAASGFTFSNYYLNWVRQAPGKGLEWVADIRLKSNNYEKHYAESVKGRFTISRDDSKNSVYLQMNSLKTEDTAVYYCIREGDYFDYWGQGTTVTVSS VL: DIVMTQTPLSLSVTPGQPASISCRASESVDSFGATFMHWYLQKPGQPPQLLIYLASNLESGVPDRFSGSGSGTDFTLKISRVEAEDVGVYYCQQNNEDPYTFGQGTKLEIKR has EC50 of 0.642

Per the record, Hu1573-3 (antibody, V domains shown, Humanized IgG, human gamma 1 / kappa constant regions by vectors pCP-hCg1 and pCP-hck; also called H1573VH.1B + H1573Vk.2) VH: EVQLVESGGGLVQPGGSLRLSCAASGFTFSNYYLNWVRQAPGKGLEWVGDIRLKSNNYEKHYAESVKGRFTISRDDSKNSVYLQMNSLKTEDTAVYYCIREGDYFDYWGQGTTVTVSS VL: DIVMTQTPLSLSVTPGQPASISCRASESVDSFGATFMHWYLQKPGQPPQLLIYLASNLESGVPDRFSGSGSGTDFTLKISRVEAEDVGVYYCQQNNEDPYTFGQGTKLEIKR has EC50 of 0.872

Per the record, Hu1573-10 (antibody, V domains shown, Humanized IgG, human gamma 1 / kappa constant regions by vectors pCP-hCg1 and pCP-hck; also called H1573VH.1D + H1573Vk.2A) VH: EVQLVESGGGLVQPGGSLRLSCAASGFTFSNYYLNWVRQAPGKGLEWVGDIRLKSNNYEKHYAESVKGRFTISRDDSKSSLYLQMNSLKTEDTAVYYCIREGDYFDYWGQGTTVTVSS VL: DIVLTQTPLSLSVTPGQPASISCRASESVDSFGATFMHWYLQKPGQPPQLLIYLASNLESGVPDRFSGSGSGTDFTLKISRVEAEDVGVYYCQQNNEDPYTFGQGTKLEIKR has EC50 of 0.68

Per the record, Hu1573-16 (antibody, V domains shown, Humanized IgG, human gamma 1 / kappa constant regions by vectors pCP-hCg1 and pCP-hck; also called H1573VH.1F + H1573Vk.2A) VH: EVQLVESGGGLVQPGGSLRLSCAASGFTFSNYYLNWVRQAPGKGLEWVADIRLKSNNYEKHYAESVKGRFTISRDDSKSSVYLQMNSLKTEDTAVYYCIREGDYFDYWGQGTTVTVSS VL: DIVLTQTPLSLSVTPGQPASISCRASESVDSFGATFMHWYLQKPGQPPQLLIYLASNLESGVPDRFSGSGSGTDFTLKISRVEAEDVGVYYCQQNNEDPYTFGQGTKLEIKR has EC50 of 1.23

Per the record, Hu1573-14 (antibody, V domains shown, Humanized IgG, human gamma 1 / kappa constant regions by vectors pCP-hCg1 and pCP-hck; also called H1573VH.1E + H1573Vk.2B) VH: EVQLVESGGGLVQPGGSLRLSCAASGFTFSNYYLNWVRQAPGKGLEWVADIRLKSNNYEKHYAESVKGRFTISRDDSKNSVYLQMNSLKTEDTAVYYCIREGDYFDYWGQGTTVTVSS VL: DIVMTQTPLSLSVTPGQPASISCRASESVDSFGATFMHWYLQKPGQPPQLLIYLASNLESGVPDRFSGSGSRTDFTLKISRVEAEDVGVYYCQQNNEDPYTFGQGTKLEIKR has EC50 of 0.984

Per the record, Hu1573-8 (antibody, V domains shown, Humanized IgG, human gamma 1 / kappa constant regions by vectors pCP-hCg1 and pCP-hck; also called H1573VH.1C + H1573Vk.2B) VH: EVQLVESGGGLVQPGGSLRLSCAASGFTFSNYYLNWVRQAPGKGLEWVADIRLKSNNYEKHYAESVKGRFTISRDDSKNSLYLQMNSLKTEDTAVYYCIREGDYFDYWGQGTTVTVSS VL: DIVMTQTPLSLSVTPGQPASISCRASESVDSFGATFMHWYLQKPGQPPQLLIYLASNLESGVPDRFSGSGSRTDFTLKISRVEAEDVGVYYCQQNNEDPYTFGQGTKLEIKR has EC50 of 0.713
